The origin of these recorded values is paper PMC4029506.

# Test Description: Epimerization in assay buffer without enzyme, monitored by chiral HPLC
# Assay type: physicochemical
# Reported Conditions: assay buffer pH 9.1, without enzyme, 30 min
Attribute Measured: total change in ee (loss of enantiopurity) (%)

INSERT INTO measurements (compound, result_value) VALUES
  ('O=C(c1ncc(-c2ccccn2)o1)C1COc2cc(OCc3ccccc3)ccc2C1 (stereo not shown)', '−4.8'),
  ('O=C(c1ncco1)C1CCc2cc(Oc3ccccc3)ccc2O1 (stereo not shown)', '−6.8');

A = O=C(c1ncc(-c2ccccn2)o1)C1CCc2cc(Oc3ccccc3)ccc2O1 (stereo not shown)
B = O=C(c1ncc(-c2ccccn2)o1)C1COc2cc(Oc3ccccc3)ccc2C1 (stereo not shown)
I'd appreciate it if you could identify which of A and B has the greater total change in ee (loss of enantiopurity). Respond with the label that goes with your answer.
B
(B: −1.7%, A: −4.4%)
